Reference for the values: patent US20240150440A1

- measured-on: recombinant SARS-CoV-2 RBD with C-terminal AviTag (SARS-CoV-2, UniProt P0DTC2 319-541)
- procedure-summary: ELISA, competition with coated ACE2-Fc for RBD [Cont. 6]
Known IC50 of a selection of binders
Numbers only here, please. The scale is µM.

binder	IC50, µM
PP880 MBP-R5a-B5-H6 (VHH, Form: Monomer) VHH: QVQLVESGGGLVQPGGSLRLSCAASGDDFIENAISWYRQAPGKGREWVAAVTLGGHSNYADSVKGRFTISRDNAKNTVYLQMNSLKPEDTAVYYCNYPVGIPAVAIDGRRSYGYWGQGTQVTVSS	0.0439
PP1147 MBP-5HVZ-PAPA-R5a-B7-H6 (VHH, Form: Dimer) VHH: QVQLVESGGGLVQPGGSLRLSCAASGAFFSYGAIHWFRQAPGKQREEVAAITSGGSTGYADSVKGRFTISRDNAKNTVYLQMNSLKPEDTAVYYCNAGVVWLPSNAAYNLWGQGTQVTVSS	0.0024
PP884 MBP-R1i-A11-H6 (VHH, Form: Monomer) VHH: QVQLVESGGGLVQPGGSLRLSCAASGSILQINAIHWFRQAPGKQREEVAAITSGGSTGYADSVKGRFTISRDNAKNTVYLQMNSLKPEDTAVYYCAATSTRGGLDSDYWGQGTQVTVSS	0.173
PP1159 MPB-scTRP-PAPA-R5a-B7-H6 (VHH, Form: Trimer) VHH: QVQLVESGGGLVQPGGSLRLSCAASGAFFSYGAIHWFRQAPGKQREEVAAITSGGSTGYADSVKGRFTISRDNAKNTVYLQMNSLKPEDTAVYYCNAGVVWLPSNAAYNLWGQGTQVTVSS	0.0565
PP906 MBP-5HVZ-S1b-E7-H6 (VHH, Form: Dimer) VHH: QVQLVESGGGLVQPGGSLRLSCAASGGEFSDNGLHWFRQAPGKQREFVATASSDGSTQYRDSVKGRFTISRDNAKNTVYLQMNSLKPEDTAVYYCTALLMSSAGEYDVWGQGTQVTVSS	0.0357

Exercise: Name the recorded IC50 of the item PP899 MBP-5HVZ-R5a-B5-H6 (VHH, Form: Dimer) VHH: QVQLVESGGGLVQPGGSLRLSCAASGDDFIENAISWYRQAPGKGREWVAAVTLGGHSNYADSVKGRFTISRDNAKNTVYLQMNSLKPEDTAVYYCNYPVGIPAVAIDGRRSYGYWGQGTQVTVSS in your answer.
Key: 0.0009

Exercise: Name the recorded IC50 of the item PP900 MBP-5HVZ-R5a-F2-H6 (VHH, Form: Dimer) VHH: QVQLVESGGGLVQPGGSLRLSCAASGSISSIEAMSWFRQAPGKQREGVATMASGGDTSYADSVKGRFTISRDNAKNTVYLQMNSLKPEDTAVYYCAAQTYRPDTWGRYTFWGQGTQVTVSS in your answer.
Key: 0.0017

Exercise: Name the recorded IC50 of the item PP1135 MBP-4B0F-PAPA-R5a-B7-H6 (VHH, Form: Heptamer) VHH: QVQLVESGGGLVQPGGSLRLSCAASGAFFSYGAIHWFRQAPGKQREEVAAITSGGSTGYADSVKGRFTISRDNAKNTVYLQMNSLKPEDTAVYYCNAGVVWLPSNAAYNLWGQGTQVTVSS in your answer.
Key: 0.0182

Exercise: Name the recorded IC50 of the item PP903 MBP-5HVZ-R1i-A11-H6 (VHH, Form: Dimer) VHH: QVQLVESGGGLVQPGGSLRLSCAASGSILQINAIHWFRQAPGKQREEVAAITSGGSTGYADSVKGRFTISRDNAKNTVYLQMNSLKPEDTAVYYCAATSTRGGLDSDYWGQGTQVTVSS in your answer.
Key: 0.0015

Exercise: Name the recorded IC50 of the item PP904 MBP-5HVZ-R5b-C5-H6 (VHH, Form: Dimer) VHH: QVQLVESGGGLVQPGGSLRLSCAASGSPFKTQTVHWFRQAPGKGREWVASITSGSGTQYMDSVKGRFTISRDNAKNTVYLQMNSLKPEDTAVYYCAAANDGYGVDWGQGTQVTVSS in your answer.
Key: 0.0025
